Parameter % inhibition at 100 µM: see the listing below.
Experimental target: T1, Chymase, from human skin (human, UniProt P23946 22-247)
T1 sequence (looked up): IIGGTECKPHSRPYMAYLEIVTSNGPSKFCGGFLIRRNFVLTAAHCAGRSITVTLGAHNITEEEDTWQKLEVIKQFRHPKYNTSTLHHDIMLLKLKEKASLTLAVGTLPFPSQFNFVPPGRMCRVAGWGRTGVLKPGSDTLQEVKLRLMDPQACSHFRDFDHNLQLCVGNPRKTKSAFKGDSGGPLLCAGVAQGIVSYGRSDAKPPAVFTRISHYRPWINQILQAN
Assay procedure: cell-based or functional assay
Bridges are numbered along the chain shown (N, C = ends). [ ]: non-standard residue; d: D form.
Output spec: scalar in %, unitless text.

Please review the entries below; each comes with its answer.
Binder	Measurement units	Reported result
ICTKSDPPYCR (HELM PEPTIDE1{I.C.T.K.S.D.P.P.Y.C.R.[dP].P}$PEPTIDE1,PEPTIDE1,2:R3-10:R3|PEPTIDE1,PEPTIDE1,1:R1-13:R2$$$V2.0; SMILES CC[C@H](C)[C@@H]1NC(=O)[C@@H]2CCCN2C(=O)[C@H]2CCCN2C(=O)[C@H](CCCNC(=N)N)NC(=O)[C@@H]2CSSC[C@H](NC1=O)C(=O)N[C@@H]([C@@H](C)O)C(=O)N[C@@H](CCCCN)C(=O)N[C@@H](CO)C(=O)N[C@@H](CC(=O)O)C(=O)N1CCC[C@H]1C(=O)N1CCC[C@H]1C(=O)N[C@@H](Cc1ccc(O)cc1)C(=O)N2) [Example 56]	%	32.5
FCTKSDPPICS (HELM PEPTIDE1{F.C.T.K.S.D.P.P.I.C.S.[dA].P}$PEPTIDE1,PEPTIDE1,2:R3-10:R3|PEPTIDE1,PEPTIDE1,1:R1-13:R2$$$V2.0; SMILES CC[C@H](C)[C@@H]1NC(=O)[C@@H]2CCCN2C(=O)[C@@H]2CCCN2C(=O)[C@H](CC(=O)O)NC(=O)[C@H](CO)NC(=O)[C@H](CCCCN)NC(=O)[C@H]([C@@H](C)O)NC(=O)[C@@H]2CSSC[C@H](NC1=O)C(=O)N[C@@H](CO)C(=O)N[C@H](C)C(=O)N1CCC[C@H]1C(=O)N[C@@H](Cc1ccccc1)C(=O)N2) [Example 49]	%	0
cyclo(ICTKSDPAICR[dP]P) (disulfide 2-10) [Example 14]	%	42.3
YCTKSDPPICY (HELM PEPTIDE1{Y.C.T.K.S.D.P.P.I.C.Y.[dP].P}$PEPTIDE1,PEPTIDE1,2:R3-10:R3|PEPTIDE1,PEPTIDE1,1:R1-13:R2$$$V2.0; SMILES CC[C@H](C)[C@@H]1NC(=O)[C@@H]2CCCN2C(=O)[C@@H]2CCCN2C(=O)[C@H](CC(=O)O)NC(=O)[C@H](CO)NC(=O)[C@H](CCCCN)NC(=O)[C@H]([C@@H](C)O)NC(=O)[C@@H]2CSSC[C@H](NC1=O)C(=O)N[C@@H](Cc1ccc(O)cc1)C(=O)N1CCC[C@@H]1C(=O)N1CCC[C@H]1C(=O)N[C@@H](Cc1ccc(O)cc1)C(=O)N2) [Example 26]	%	0

Query binder follows.
Data request: I'd like to know its % inhibition at 100 µM. The binder in question is FCTKSDPPICS (HELM PEPTIDE1{F.C.T.K.S.D.P.P.I.C.S.[dP].D}$PEPTIDE1,PEPTIDE1,2:R3-10:R3|PEPTIDE1,PEPTIDE1,1:R1-13:R2$$$V2.0; SMILES CC[C@H](C)[C@@H]1NC(=O)[C@@H]2CCCN2C(=O)[C@@H]2CCCN2C(=O)[C@H](CC(=O)O)NC(=O)[C@H](CO)NC(=O)[C@H](CCCCN)NC(=O)[C@H]([C@@H](C)O)NC(=O)[C@@H]2CSSC[C@H](NC1=O)C(=O)N[C@@H](CO)C(=O)N1CCC[C@@H]1C(=O)N[C@@H](CC(=O)O)C(=O)N[C@@H](Cc1ccccc1)C(=O)N2) [Example 47]
Data returned: 8.2
